Attribute: relative viability EC50
System: U2OS
Assay: relative viability EC50 (midpoint between 100% and the lowest measured viability); higher = less toxic
Details: 72 h
recordedMetric: relative viability EC50

1) CC(Oc1c(Cl)cccc1Cl)C1=NCCN1 (stereo not given) ... > 10 µM
2) COc1ncc(-c2ccc3c(Nc4cc(Oc5cc(F)cc(F)c5)cc(C(=O)O)c4)c(S(=O)(=O)NC4CC4)cnc3c2)c(OC)n1 ... > 10 µM
3) O=C(N[C@H]1CCN(C(=O)c2cc(C(F)(F)F)cc(C(F)(F)F)c2)[C@H](Cc2ccc(Cl)cc2)C1)c1ccnc2ccccc12 ... > 10 µM
4) C[C@@H](Oc1ccc(Cl)cc1)c1ccnc2ncnn12 ... > 10 µM
5) Cc1cccc(C#Cc2ccccc2)n1 ... > 10 µM
6) COc1ccc(COc2ccc(Cc3cnc(N)nc3N)cc2OC)cc1 ... > 10 µM
7) NCCC[C@H](N)C(=O)O ... > 10 µM
8) Nc1nc(OCc2ccccc2)c2nc[nH]c2n1 ... > 10 µM
9) O=C1C(=Cc2cccnc2)C(=O)c2ccccc21 ... > 10 µM
10) CCOC(=O)[C@@H](C)Oc1cccc2c(=O)n(CC(=O)Nc3ccc4c(c3)OCCO4)ccc12 ... > 10 µM

----------
Attribute: cell viability
System: Calu-3
Assay: cell viability relative to DMSO; higher = less toxic
Conditions: 72 h; 10 nM
recordedMetric: cell viability (%)

1. CCN(CC)CCOc1ccc2c(c1)C(=O)c1cc(OCCN(CC)CC)ccc1-2 ... 101
2. CC(=O)CC(c1ccccc1)c1c(O)c2ccccc2oc1=O (centres undefined) ... 91.9
3. Cc1ncc(NC(=O)c2ccc(CN3CCN(C)CC3)c(C(F)(F)F)c2)cc1Nc1nccc(-c2cccnc2)n1 ... 92.7
4. O=C(O)COCCN1CCN(C(c2ccccc2)c2ccc(Cl)cc2)CC1 (centres undefined) ... 105
5. Oc1ccc(-c2nc(-c3ccc(F)cc3)c(-c3ccncc3)[nH]2)cc1 ... 106
6. Clc1ccc([C@]23CNC[C@H]2C3)cc1Cl ... 90.7
7. CC(Oc1c(Cl)cccc1Cl)C1=NCCN1 (centres undefined) ... 108
8. Cc1c(-c2ccc(O)cc2)n(Cc2ccc(OCCN3CCCCCC3)cc2)c2ccc(O)cc12 ... 91.5
9. COc1ccc(C(=O)c2c(C)n(CCN3CCOCC3)c3cc(I)ccc23)cc1 ... 102

----------
Attribute: cell viability
System: HepG2
Assay: cell viability relative to DMSO; higher = less toxic
Settings: 72 h; 1 nM
recordedMetric: cell viability (%)

1. C[N+](C)(C)CC(O)CC(=O)[O-] (centres undefined) ... 98.1
2. C[C@@H]1COCCN1c1cc(C2([S@](C)(=N)=O)CC2)nc(-c2ccnc3[nH]ccc23)n1 ... 94.5
3. O=C(/C=C\n1cnc(-c2cc(C(F)(F)F)cc(C(F)(F)F)c2)n1)NNc1cnccn1 [selinexor] ... 108
4. Cc1ccnc(NS(=O)(=O)c2ccc(N)cc2)n1 ... 104
5. C[C@@H]1CCN(C(=O)CC#N)C[C@@H]1N(C)c1ncnc2[nH]ccc12 ... 111
6. CS(=O)(=O)Nc1ccc(Cc2noc(-c3ccc4[nH]cc(CCN)c4c3)n2)cc1 ... 93.8
7. CCN1CCN(Cc2ccc(-c3cc4c(N[C@H](C)c5ccccc5)ncnc4[nH]3)cc2)CC1 ... 109
8. OCCNC1CCCc2c1[nH]c1ccc(-c3ccccc3)cc21 (centres undefined) ... 94.7
9. NCCCC[C@H](NC(=O)[C@@H]1CCCN1C(=O)[C@@H]1CSSC[C@H](NC(=O)CNC(=O)CNC(=O)CN)C(=O)N[C@@H](Cc2ccc(O)cc2)C(=O)N[C@@H](Cc2ccccc2)C(=O)N[C@@H](CCC(N)=O)C(=O)N[C@@H](CC(N)=O)C(=O)N1)C(=O)NCC(N)=O ... 94.4
10. O=C(Nc1c(Cl)cncc1Cl)c1ccc(OC(F)F)c(OCC2CC2)c1 ... 106
11. COc1ccc(CCCO[C@@H](Cn2ccnc2)c2ccc(OC)cc2)cc1 ... 101
12. C[C@@H]1CCCN1CCc1cc2cc(-c3ccc(C#N)cc3)ccc2o1 ... 105
13. Fc1ccc2c(CCNCc3cccc(OCC(F)(F)C(F)F)c3)c[nH]c2c1 ... 97.5
14. CO[C@@H]1[C@H](O)[C@@H](CO)O[C@H]1n1cnc2c(NC3CCCCC3)ncnc21 ... 88
15. C=C(C)CN1CC[C@]23c4c5ccc(O)c4O[C@H]2c2[nH]c4ccccc4c2C[C@@]3(O)C1C5 [SDM25N] ... 92.7
16. COc1cc2c(Nc3ccc(NC(=O)c4ccccc4)cc3)ncnc2cc1OCCCN1CCOCC1 ... 102
17. CCCCC(=O)N(Cc1ccc(-c2ccccc2-c2nnn[nH]2)cc1)[C@H](C(=O)O)C(C)C ... 107
18. CC(N)Cc1c[nH]c2ccc(OCc3cccs3)cc12 (centres undefined) ... 102
19. CCOC(=O)c1ccc(O)cc1 ... 108
20. C[C@H]1c2cccc(O)c2C(=O)C2=C(O)[C@]3(O)C(=O)C(C(N)=O)=C(O)[C@@H](N(C)C)[C@@H]3[C@@H](O)[C@@H]21 ... 100
21. C[C@@H]1O[C@@H](OC[C@H]2O[C@@H](Oc3c(-c4ccc(O)c(O)c4)oc4cc(O)cc(O)c4c3=O)[C@H](O)[C@@H](O)[C@@H]2O)[C@H](O)[C@H](O)[C@H]1O ... 104
22. CCc1cc2c(c(CC)n1)CCC(=O)N2Cc1ccc(-c2ccccc2-c2nnn[nH]2)cc1 ... 86.1
23. Cc1nc2n(c(=O)c1CCN1CCC(c3noc4cc(F)ccc34)CC1)CCCC2O (centres undefined) ... 107
24. CCOc1cc([C@@H](CS(C)(=O)=O)N2C(=O)c3cccc(NC(C)=O)c3C2=O)ccc1OC ... 102
25. CC(C)[C@H]1[C@@H]2CC[C@@H](C2)[C@@H]1N ... 89.5
26. O=C1CCC(N2C(=O)c3ccccc3C2=O)C(=O)N1 (centres undefined) [thalidomide] ... 102
27. O=C(O)c1ccc(CN2CCC(CN[C@@H]3C[C@H]3c3ccccc3)CC2)cc1 ... 105
28. N#CCC1(n2cc(-c3ncnc4[nH]ccc34)cn2)CN(C2CCN(C(=O)c3ccnc(C(F)(F)F)c3F)CC2)C1 ... 95.3
29. Cc1cccc(C#Cc2ccccc2)n1 ... 98.8
30. CN(C)[C@@H](CCOc1cccc2ccccc12)c1ccccc1 ... 94.1
31. Cc1ncc(Cl)cc1NCc1ccc(C(=O)N[C@@H](CC2CCCC2)C(=O)NC2CC2)s1 ... 100
32. O=C(O)[C@H](Cc1c[nH]c2ccccc12)N1C(=O)c2ccccc2C1=O ... 118
33. CC(=O)NCCc1c[nH]c2ccccc12 ... 105
34. N#Cc1ccc(N(Cc2ccc(Br)cc2)n2cnnc2)cc1 ... 104

----------
Attribute: cell viability
Test system: U2OS
Assay: cell viability relative to DMSO; higher = less toxic
Settings: 72 h; 1 nM
recordedMetric: cell viability (%)

1. O=C1c2ccccc2C(=O)C1c1ccc(Br)cc1 ... 104
2. CC1=C(C(=O)Nc2cc3cn[nH]c3cc2F)C(c2ccc(C(F)(F)F)cc2)CC(=O)N1 (stereo not drawn) ... 94.9
3. NC[C@H]1O[C@H](O[C@H]2[C@H](O)[C@@H](O[C@H]3O[C@H](CO)[C@@H](O)[C@H](N)[C@H]3O)[C@H](N)C[C@@H]2N)[C@H](O)[C@@H](O)[C@@H]1O ... 102
4. COc1cc2c(Nc3ccc(NC(=O)c4ccccc4)cc3)ncnc2cc1OCCCN1CCOCC1 ... 105
5. N[C@H]1CCN(O)C1=O [HA-966-(S)-(-)] ... 97.6
6. Cc1cc(-c2ccc(CC(=O)Nc3ccc(-c4cccnc4)cc3)cc2)ccn1 ... 93.9
7. COC(=O)Nc1nc2cc([S+]([O-])c3ccccc3)ccc2[nH]1 (stereo not drawn) ... 101
8. CC1=C(/C=C/C(C)=C/C=C/C(C)=C/C=C/C=C(C)/C=C/C=C(C)/C=C/C2=C(C)C(=O)[C@@H](O)CC2(C)C)C(C)(C)C[C@H](O)C1=O ... 97.8

----------
Tested on: HepG2
Experiment: relative viability EC50 (midpoint between 100% and the lowest measured viability); higher = less toxic
Conditions: 72 h
Attribute: relative viability EC50
recordedMetric: relative viability EC50

1. Clc1cccc(/C=N/N=C/c2cccc(Cl)c2)c1 ... > 10 µM
2. COc1cc(C)nc(-n2nc(C)cc2OC)n1 [epirizole] ... > 10 µM
3. C[C@@H](O)[C@H]1C(=O)N2C(C(=O)O)=C([C@H]3CCCO3)S[C@H]12 ... > 10 µM
4. Clc1ccc(N/N=C(\c2ccccc2)c2ccccn2)nc1 ... 0.0327 µM
5. CCOC(=O)[C@@H](C)Oc1cccc2c(=O)n(CC(=O)Nc3ccc4c(c3)OCCO4)ccc12 ... > 10 µM
6. OCC(CO)N[C@H]1C[C@](O)(CO)[C@@H](O)[C@H](O)[C@H]1O ... > 10 µM
7. Oc1ccc(-c2nc(-c3ccc(F)cc3)c(-c3ccncc3)[nH]2)cc1 ... > 10 µM
8. OCc1cccnc1 [nicotinyl-alcohol-tartrate] ... > 10 µM
9. Cn1cc(-c2[nH]c3cc(NC(=O)[C@H](N)C4CCCCC4)cc4c3c2C=NNC4=O)cn1 ... 0.493 µM
10. CC(C)Oc1ccc(-c2nn([C@@H](C)c3oc4ccc(F)cc4c(=O)c3-c3cccc(F)c3)c3ncnc(N)c23)cc1F ... > 10 µM
11. O=C1c2ccccc2C(=O)C1c1ccc(Br)cc1 ... > 10 µM
12. CC1(N)CCN(c2cnc(-c3cccc(Cl)c3Cl)c(N)n2)CC1 ... > 10 µM
13. COc1ccc(S(=O)(=O)Nc2nc(-c3cccc([N+](=O)[O-])c3)cs2)cc1OC ... > 10 µM
14. C[C@@H]1O[C@@H](OC[C@H]2O[C@@H](Oc3c(-c4ccc(O)c(O)c4)oc4cc(O)cc(O)c4c3=O)[C@H](O)[C@@H](O)[C@@H]2O)[C@H](O)[C@H](O)[C@H]1O ... > 10 µM
15. CCN(c1ccccc1)c1cc(=NC)n(C)c(C)n1 ... > 10 µM
16. Oc1cc2c(cc1O)[C@@H]1c3ccc(O)c(O)c3OC[C@]1(O)C2 ... > 10 µM
17. O=C(O)[C@H](Cc1c[nH]c2ccccc12)N1C(=O)c2ccccc2C1=O ... > 10 µM
18. CCCc1c(OCC(O)COc2ccc3c(=O)cc(C(=O)O)oc3c2CCC)ccc(C(C)=O)c1O (stereo not drawn) ... > 10 µM
